# System: Escherichia coli TOP10
# procedure details: shrunken log2 fold change of peptide-encoding DNA abundance (4.5 h post-induction vs induction); higher = less antimicrobial activity (less host growth inhibition)
# condition set: time post-induction: 4.5 h; library: site-saturation at positions 5, 18, 19, 20
Class condition met: shrunken log2 fold change at least -0.01. Class condition not met: shrunken log2 fold change below -0.01.

Task item: Determine whether measured shrunken log2 fold change meets or exceeds -0.01 for RRIRARPPRLPRPRPRPIMQPRP
Reply: condition not met

***
Task item: Determine whether measured shrunken log2 fold change meets or exceeds -0.01 for RRIRMRPPRLPRPRPRPEGLPRP
Reply: condition met

Task item: Determine whether measured shrunken log2 fold change meets or exceeds -0.01 for RRIRNRPPRLPRPRPRPFENPRP
Reply: condition not met

Task item: Determine whether measured shrunken log2 fold change meets or exceeds -0.01 for RRIRARPPRLPRPRPRPVAAPRP
Reply: condition met

Task item: Determine whether measured shrunken log2 fold change meets or exceeds -0.01 for RRIRIRPPRLPRPRPRPMGKPRP
Reply: condition not met

Task item: Determine whether measured shrunken log2 fold change meets or exceeds -0.01 for RRIRTRPPRLPRPRPRPWMYPRP
Reply: condition not met

----------
# Test system: Escherichia coli TOP10
# procedure details: shrunken log2 fold change of peptide-encoding DNA abundance (4.5 h post-induction vs induction); higher = less antimicrobial activity (less host growth inhibition)
# condition set: time post-induction: 4.5 h; library: site-saturation at positions 5, 18, 19, 20
So I've got a bunch of sequences here, and I need their shrunken log2 fold change values.
One number for each entry.

Reference set (2 entries):
Task item: If you can, please state the reported shrunken log2 fold change value of RRIRYRPPRLPRPRPRPIKMPRP .
Reply: -0.666

Task item: If you can, please state the reported shrunken log2 fold change value of RRIRIRPPRLPRPRPRPNNWPRP .
Reply: -0.535

Could you report shrunken log2 fold change for every entry in the following list?
1. RRIRCRPPRLPRPRPRPGPFPRP
2. RRIRQRPPRLPRPRPRPKMRPRP

Reply:
[-0.0444, 0.0141]

----------
# System: Escherichia coli TOP10
# procedure details: shrunken log2 fold change of peptide-encoding DNA abundance (4.5 h post-induction vs induction); higher = less antimicrobial activity (less host growth inhibition)
# condition set: time post-induction: 4.5 h; library: site-saturation at positions 5, 18, 19, 20
So I've got a bunch of sequences here, and I need their shrunken log2 fold change values.
Answers are plain numbers.

Reference set (2 entries):
Task item: If you can, please state the reported shrunken log2 fold change value of RRIRNRPPRLPRPRPRPMEPPRP .
Reply: -0.0573

Task item: If you can, please state the reported shrunken log2 fold change value of RRIRRRPPRLPRPRPRPWAVPRP .
Reply: -0.00967

Could you report shrunken log2 fold change for every entry in the following list?
1. RRIRNRPPRLPRPRPRPDQIPRP
2. RRIRMRPPRLPRPRPRPVNQPRP
3. RRIRDRPPRLPRPRPRPNSGPRP
4. RRIRSRPPRLPRPRPRPYESPRP
5. RRIRWRPPRLPRPRPRPVKRPRP
6. RRIRYRPPRLPRPRPRPFSYPRP
7. RRIRCRPPRLPRPRPRPTMCPRP
8. RRIRERPPRLPRPRPRPTSQPRP

Reply:
-0.0823
-0.0449
-0.269
-0.26
0.015
-0.145
-0.755
-0.235

----------
# System: Escherichia coli TOP10
# procedure details: shrunken log2 fold change of peptide-encoding DNA abundance (4.5 h post-induction vs induction); higher = less antimicrobial activity (less host growth inhibition)
# condition set: time post-induction: 4.5 h; library: site-saturation at positions 5, 18, 19, 20
observation type: shrunken log2 fold change
Give bare numbers.

Reference set (6 entries):
Task item: If you can, please state the reported shrunken log2 fold change value of RRIRRRPPRLPRPRPRPKQVPRP .
Reply: 0.351

Task item: If you can, please state the reported shrunken log2 fold change value of RRIRWRPPRLPRPRPRPDCDPRP .
Reply: 0.799

Task item: If you can, please state the reported shrunken log2 fold change value of RRIRLRPPRLPRPRPRPNQEPRP .
Reply: 0.0423

Task item: If you can, please state the reported shrunken log2 fold change value of RRIRCRPPRLPRPRPRPAYAPRP .
Reply: 0.00565

Task item: If you can, please state the reported shrunken log2 fold change value of RRIRHRPPRLPRPRPRPGTYPRP .
Reply: -0.0156

Task item: If you can, please state the reported shrunken log2 fold change value of RRIRVRPPRLPRPRPRPLQMPRP .
Reply: 0.312

Could you report shrunken log2 fold change for every entry in the following list?
1. RRIRKRPPRLPRPRPRPTAHPRP
2. RRIRVRPPRLPRPRPRPPDKPRP
3. RRIRWRPPRLPRPRPRPPSSPRP
4. RRIRWRPPRLPRPRPRPTVPPRP

Reply:
0.513
0.265
0.778
0.0399

Could you report shrunken log2 fold change for every entry in the following list?
1. RRIRYRPPRLPRPRPRPRLIPRP
2. RRIRHRPPRLPRPRPRPTKGPRP
3. RRIRARPPRLPRPRPRPFSGPRP
4. RRIRDRPPRLPRPRPRPVCQPRP

Reply:
[-0.466, -0.14, -0.00374, 0.0526]

Could you report shrunken log2 fold change for every entry in the following list?
1. RRIRQRPPRLPRPRPRPVGGPRP
2. RRIRPRPPRLPRPRPRPWALPRP
3. RRIRARPPRLPRPRPRPSRCPRP
4. RRIRDRPPRLPRPRPRPKENPRP

Reply:
[2.52, -0.0895, 0.228, 0.0579]

----------
# System: Escherichia coli TOP10
# procedure details: shrunken log2 fold change of peptide-encoding DNA abundance (4.5 h post-induction vs induction); higher = less antimicrobial activity (less host growth inhibition)
# condition set: time post-induction: 4.5 h; library: site-saturation at positions 5, 18, 19, 20
So I've got a bunch of sequences here, and I need their shrunken log2 fold change values.
Give bare numbers.

Task item: If you can, please state the reported shrunken log2 fold change value of RRIRPRPPRLPRPRPRPFHMPRP .
Reply: -0.301

Task item: If you can, please state the reported shrunken log2 fold change value of RRIRDRPPRLPRPRPRPKARPRP .
Reply: 0.132

Task item: If you can, please state the reported shrunken log2 fold change value of RRIRNRPPRLPRPRPRPPEWPRP .
Reply: -0.188

Task item: If you can, please state the reported shrunken log2 fold change value of RRIRERPPRLPRPRPRPLQTPRP .
Reply: 0.22

Task item: If you can, please state the reported shrunken log2 fold change value of RRIRERPPRLPRPRPRPFRGPRP .
Reply: -0.11

Task item: If you can, please state the reported shrunken log2 fold change value of RRIRFRPPRLPRPRPRPIPMPRP .
Reply: -0.428

Task item: If you can, please state the reported shrunken log2 fold change value of RRIRFRPPRLPRPRPRPHCAPRP .
Reply: -0.17

Task item: If you can, please state the reported shrunken log2 fold change value of RRIRKRPPRLPRPRPRPAVDPRP .
Reply: -0.0502

Task item: If you can, please state the reported shrunken log2 fold change value of RRIRDRPPRLPRPRPRPVRPPRP .
Reply: 1.07

Task item: If you can, please state the reported shrunken log2 fold change value of RRIRDRPPRLPRPRPRPDTWPRP .
Reply: 0.335

Could you report shrunken log2 fold change for every entry in the following list?
1. RRIRWRPPRLPRPRPRPFWEPRP
2. RRIRRRPPRLPRPRPRPTYSPRP
3. RRIRGRPPRLPRPRPRPEHGPRP
4. RRIRVRPPRLPRPRPRPTVPPRP
5. RRIRTRPPRLPRPRPRPLDEPRP

Reply:
[0.121, -0.116, 0.602, -0.138, 0.23]

----------
# Test system: Escherichia coli TOP10;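 note: peptides expressed intracellularly from a pBAD plasmid library in pooled LB shake-flask culture, induced with 0.3% L-arabinose, DNA abundance read by NGS, three biological replicates, DESeq2 with apeglm shrinkage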
# procedure details: shrunken log2 fold change of peptide-encoding DNA abundance (4.5 h post-induction vs induction); higher = less antimicrobial activity (less host growth inhibition)
# condition set: time post-induction: 4.5 h; library: site-saturation at positions 5, 18, 19, 20
observation type: shrunken log2 fold change

Could you report shrunken log2 fold change for every entry in the following list?
1. RRIRLRPPRLPRPRPRPSDDPRP
2. RRIRERPPRLPRPRPRPFQFPRP

Reply:
1: -0.34; 2: -0.062

Could you report shrunken log2 fold change for every entry in the following list?
1. RRIRERPPRLPRPRPRPSDPPRP
2. RRIRERPPRLPRPRPRPCITPRP
3. RRIRTRPPRLPRPRPRPHTEPRP
4. RRIRCRPPRLPRPRPRPYIKPRP
5. RRIRPRPPRLPRPRPRPFRMPRP
6. RRIRQRPPRLPRPRPRPAHPPRP

Reply:
1: -0.417; 2: -0.395; 3: -0.215; 4: -0.791; 5: -0.134; 6: 0.181
